B1: PPP2R2B (parent)
chain: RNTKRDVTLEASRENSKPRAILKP

variants of: B1; assay: protein stability index of a GFP-peptide fusion (GPS, HEK-293T) (PSI 1-6); higher = more stable; conditions: c terminus: a fixed tail appended;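 note: lentivirally expressed fusions sorted by FACS into six bins by GFP to DsRed ratio, PSI derived from sequencing read proportions per bin multiplied by bin number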
measurement_label: protein stability index
Answers are plain numbers.

>>> test_result("A11H")
4.8
>>> test_result("R13M")
4.64
>>> test_result("K4G")
4.61
>>> test_result("A11E")
5.24
>>> test_result("T3N")
3.95
>>> test_result("L22N")
4.79
>>> test_result("K4D")
4.72
>>> test_result("P24G")
4.65
>>> test_result("N15D")
4.77
>>> test_result("I21D")
5.3

Provide the reported protein stability index of each entry below, same order.
1. N15I
2. D6W
3. V7G
4. R19M
5. R13V
6. T8P
7. R5Q
8. K17L

Response:
1: 4.59; 2: 3.27; 3: 4.83; 4: 4.44; 5: 4.67; 6: 4.76; 7: 4.54; 8: 4.56

Provide the reported protein stability index of each entry below, same order.
1. R13T
2. L22C

Response:
[4.07, 4.47]

Provide the reported protein stability index of each entry below, same order.
1. R19G
2. S12N
3. S12D
4. P24C

Response:
[4.86, 4.43, 4.8, 4.44]

Provide the reported protein stability index of each entry below, same order.
1. V7F
2. L9K
3. N2T
4. K4H
5. E14K
6. K4L
7. A11R
8. V7A

Response:
[4.43, 4.26, 4.42, 4.84, 4.12, 4.61, 4.58, 4.19]

Provide the reported protein stability index of each entry below, same order.
1. R1D
2. E10D
3. A20H
4. E10P
5. E10Q
6. N15S

Response:
4.97
4.64
4.85
4.55
4.33
4.85

Provide the reported protein stability index of each entry below, same order.
1. K23S
2. R1P
3. D6A
4. E14T
5. N2C

Response:
1: 4.56; 2: 4.27; 3: 4.64; 4: 4.58; 5: 4.27

Provide the reported protein stability index of each entry below, same order.
1. R19L
2. V7M
3. R5C
4. R19S
5. A20P
6. R5N
7. P18R
8. V7K

Response:
4.7
4.81
4.43
4.41
4.3
4.92
4.79
4.6

Provide the reported protein stability index of each entry below, same order.
1. K17G
2. K17E
3. R1Q

Response:
1. 4.89
2. 5.13
3. 4.81
